Where these numbers come from: patent US11897862B2

Molecular target: IKZF2 (Homo sapiens, UniProt Q96SW2+Q9UKS7)
Sequence (Q9UKS7 1-500 isoform Q9UKS7-2): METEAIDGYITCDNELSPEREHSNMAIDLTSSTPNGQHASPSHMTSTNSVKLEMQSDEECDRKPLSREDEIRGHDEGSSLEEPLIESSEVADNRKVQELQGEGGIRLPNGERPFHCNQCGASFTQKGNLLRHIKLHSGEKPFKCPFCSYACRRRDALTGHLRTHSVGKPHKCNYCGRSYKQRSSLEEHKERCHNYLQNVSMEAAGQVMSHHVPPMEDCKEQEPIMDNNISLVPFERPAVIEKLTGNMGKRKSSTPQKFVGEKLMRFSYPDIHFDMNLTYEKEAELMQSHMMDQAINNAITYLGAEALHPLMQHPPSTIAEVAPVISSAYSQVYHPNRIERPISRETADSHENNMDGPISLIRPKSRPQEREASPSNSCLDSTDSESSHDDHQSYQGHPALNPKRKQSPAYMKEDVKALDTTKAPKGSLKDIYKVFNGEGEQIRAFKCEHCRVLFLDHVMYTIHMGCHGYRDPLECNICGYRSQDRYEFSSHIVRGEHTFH
Sequence (Q96SW2 whole entry): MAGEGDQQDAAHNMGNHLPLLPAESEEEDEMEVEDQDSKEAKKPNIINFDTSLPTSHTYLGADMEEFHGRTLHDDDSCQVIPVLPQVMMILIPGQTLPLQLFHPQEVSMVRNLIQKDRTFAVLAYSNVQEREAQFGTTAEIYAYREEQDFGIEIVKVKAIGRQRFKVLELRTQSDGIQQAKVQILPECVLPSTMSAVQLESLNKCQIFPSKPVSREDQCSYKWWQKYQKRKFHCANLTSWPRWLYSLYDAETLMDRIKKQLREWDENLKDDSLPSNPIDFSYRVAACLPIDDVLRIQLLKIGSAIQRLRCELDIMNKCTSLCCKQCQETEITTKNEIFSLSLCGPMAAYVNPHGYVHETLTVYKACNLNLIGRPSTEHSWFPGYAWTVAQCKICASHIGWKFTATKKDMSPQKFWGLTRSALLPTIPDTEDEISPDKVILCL
Sequence (Q16531 whole entry partner): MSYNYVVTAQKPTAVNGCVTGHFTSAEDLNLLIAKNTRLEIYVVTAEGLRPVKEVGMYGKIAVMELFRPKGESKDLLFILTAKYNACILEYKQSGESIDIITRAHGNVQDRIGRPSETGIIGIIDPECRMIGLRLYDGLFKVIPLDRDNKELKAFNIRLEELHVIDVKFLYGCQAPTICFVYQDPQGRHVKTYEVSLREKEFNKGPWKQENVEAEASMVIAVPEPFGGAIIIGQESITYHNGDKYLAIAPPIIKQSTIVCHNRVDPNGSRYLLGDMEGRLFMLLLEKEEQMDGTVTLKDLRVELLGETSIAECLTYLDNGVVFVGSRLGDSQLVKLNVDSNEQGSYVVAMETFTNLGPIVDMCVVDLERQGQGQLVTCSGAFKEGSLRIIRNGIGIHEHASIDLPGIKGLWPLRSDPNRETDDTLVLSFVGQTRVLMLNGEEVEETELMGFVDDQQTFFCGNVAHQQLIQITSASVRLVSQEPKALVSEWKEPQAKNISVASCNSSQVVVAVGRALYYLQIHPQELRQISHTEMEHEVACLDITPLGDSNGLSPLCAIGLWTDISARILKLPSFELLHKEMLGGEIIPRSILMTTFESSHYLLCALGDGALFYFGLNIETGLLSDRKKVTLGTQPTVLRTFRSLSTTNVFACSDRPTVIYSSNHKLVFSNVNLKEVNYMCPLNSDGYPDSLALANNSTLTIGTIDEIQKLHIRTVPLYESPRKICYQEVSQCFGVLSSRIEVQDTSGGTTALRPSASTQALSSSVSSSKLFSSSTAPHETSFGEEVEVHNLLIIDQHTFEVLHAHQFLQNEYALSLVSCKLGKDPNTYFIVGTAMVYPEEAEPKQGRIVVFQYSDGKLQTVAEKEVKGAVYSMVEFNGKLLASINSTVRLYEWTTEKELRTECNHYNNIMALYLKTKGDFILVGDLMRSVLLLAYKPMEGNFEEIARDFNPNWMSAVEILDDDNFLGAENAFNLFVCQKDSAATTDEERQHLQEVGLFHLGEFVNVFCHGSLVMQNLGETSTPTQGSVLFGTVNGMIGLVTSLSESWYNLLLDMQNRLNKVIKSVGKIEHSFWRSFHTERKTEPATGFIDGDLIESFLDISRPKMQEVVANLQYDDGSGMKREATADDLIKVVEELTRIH
Test: HEK293 HiBiT in vitro degradation of IKZF2
Type: cell-based
Design: expressed in transfected cells
Settings: HEK293 HiBiT, 18-24 hr incubation, normalized to DMSO control; read-out: IKZF2 EC50
Observed property: DC50 (nM)
Give a bare numeral; the unit nM is implied.

Sure, the documented DC50 for O=C1CCC(N2Cc3cc(C[C@H]4CCCC[C@@H]4NC4CCC(OC(F)(F)F)CC4)ccc3C2=O)C(=O)N1 (single isomer, unassigned) [Example 146] is 2

Noted for CC(C)CC(C)N[C@H]1CCCC[C@@H]1Cc1ccc2c(c1)CN(C1CCC(=O)NC1=O)C2=O (stereo partly shown) [Example 185] : its DC50 reads 6

// O=C1CCC(N2Cc3cc(C[C@H]4CCCC[C@@H]4N(CC4CCOCC4)CC4CCOCC4)ccc3C2=O)C(=O)N1 (stereo partly shown) [Example 70] : DC50 value = 80

The value of DC50 measured for the compound CC(N[C@H]1CCCC[C@@H]1Cc1ccc2c(c1)CN(C1CCC(=O)NC1=O)C2=O)C1CCCO1 (single isomer, unassigned) [Example 254] turned out to be 33

Looking up O=C1CC[C@@H](N2Cc3c(ccc(C[C@H]4OCCC[C@@H]4NC4CCCCC4)c3F)C2=O)C(=O)N1 (single isomer, unassigned) [Example 339] , I see its DC50 listed as 11

Entry under test: CC(C)(C)CCN[C@H]1CCCC[C@@H]1Cc1ccc2c(c1F)CN(C1CCC(=O)NC1=O)C2=O (stereo partly shown) [Example 89] . Its DC50 was 6

For reference, reported DC50 for O=C1CCC(N2Cc3cc(C[C@H]4CCCC[C@@H]4NCC4CCC(F)(F)CC4)ccc3C2=O)C(=O)N1 (stereo partly shown) [Example 10] stands at 13

# DC50 (compound: CC(N[C@H]1CCCC[C@@H]1Cc1ccc2c(c1)CN(C1CCC(=O)NC1=O)C2=O)C1(C#N)CC1 (single isomer, unassigned) [Example 255] ) is 32

# compound O=C1CC[C@H](N2Cc3c(ccc(C[C@H]4CCCC[C@@H]4NC4CCC(F)(F)CC4)c3F)C2=O)C(=O)N1 (single isomer, unassigned) [Example 334] ; its DC50 = 1

Value of DC50 reported for the compound O=C1CCC(N2Cc3c(ccc(C[C@H]4OCCC[C@@H]4NC4CCN(CC(F)(F)F)CC4)c3F)C2=O)C(=O)N1 (stereo partly shown) [Example 308] is 12

In plain terms, CC(C)(C)CN[C@H]1CCCC[C@@H]1Cc1ccc2c(c1)CN(C1CCC(=O)NC1=O)C2=O (stereo partly shown) [Example 57] has a documented DC50 of 25

GET /value?item= O=C1CCC(N2Cc3cc(C[C@H]4CCCC[C@@H]4NCc4cccnc4F)ccc3C2=O)C(=O)N1 (stereo partly shown) [Example 62] &field=DC50 returns 56

What the record says about O=C1CCC(N2Cc3cc(C[C@H]4CCCC[C@@H]4NC4CCC(OC(F)F)CC4)ccc3C2=O)C(=O)N1 (stereo partly shown) [Example 323] : DC50 is 3
